target: T1, human glucagon receptor (human, UniProt P47871 26-477); experiment: [125I]-Gcg competition SPA, hGcgR membranes
T1 construct: whole, on cells; also called hGcgR; GcgR
T1 sequence (P47871 26-477): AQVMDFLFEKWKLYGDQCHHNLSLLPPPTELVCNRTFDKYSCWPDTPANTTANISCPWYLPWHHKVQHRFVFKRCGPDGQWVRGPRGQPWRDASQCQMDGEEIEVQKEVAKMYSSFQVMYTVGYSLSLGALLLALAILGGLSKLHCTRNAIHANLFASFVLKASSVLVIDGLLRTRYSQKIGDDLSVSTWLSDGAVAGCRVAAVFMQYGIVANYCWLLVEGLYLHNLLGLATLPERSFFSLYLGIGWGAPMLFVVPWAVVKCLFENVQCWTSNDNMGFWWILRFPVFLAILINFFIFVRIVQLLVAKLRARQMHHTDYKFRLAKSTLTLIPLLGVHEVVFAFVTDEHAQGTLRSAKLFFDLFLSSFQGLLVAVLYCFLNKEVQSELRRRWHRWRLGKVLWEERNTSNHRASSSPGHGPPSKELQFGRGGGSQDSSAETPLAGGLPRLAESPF
Measured Ki accompanies every entry in the list below.
READOUT NAME: Ki (nM)

BINDER: YXEGTXTSDYSILLDKKAQXEFIEYLIAGGPSSG (Aib2; αMeF(2F)6; K17((2-[2-(2-Amino-ethoxy)-ethoxy]-acetyl)2-(γ-Glu)-CO-(CH2)16-CO2H); Aib20; C-terminal NH2) [Example 314]
QUANTITATIVE RESULT: 116
//
BINDER: YXEGTXTSDXSIXLDXKAQXAFIXXLIEGGPSSGAPPPS (Aib2; αMeF(2F)6; 4Pal10; αMeL13; Orn16; K17((2-[2-(2-Amino-ethoxy)-ethoxy]-acetyl)2-(γ-Glu)-CO-(CH2)16-CO2H); Aib20; D-Glu24; αMeY25; C-terminal NH2) [Example 240]
QUANTITATIVE RESULT: 204
//
BINDER: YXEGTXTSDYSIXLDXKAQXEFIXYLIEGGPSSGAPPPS (Aib2; αMeF(2F)6; αMeL13; Dap16; K17((2-[2-(2-Amino-ethoxy)-ethoxy]-acetyl)2-(γ-Glu)-CO-(CH2)18-CO2H); Aib20; D-Glu24; C-terminal NH2) [Example 218]
QUANTITATIVE RESULT: 270
//
BINDER: YXEGTFTSDYSIXLDKKAQXAFIEYLIAGGPSSG (Aib2; αMeL13; K17((2-[2-(2-Amino-ethoxy)-ethoxy]-acetyl)2-(γ-Glu)-CO-(CH2)16-CO2H); Aib20; C-terminal NH2) [Example 305]
QUANTITATIVE RESULT: 352
//
BINDER: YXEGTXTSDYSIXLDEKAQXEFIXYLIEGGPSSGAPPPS (Aib2; αMeF6; Aib13; K17((2-[2-(2-Amino-ethoxy)-ethoxy]-acetyl)2-(γ-Glu)-CO-(CH2)18-CO2H); Aib20; D-Glu24; C-terminal NH2) [Example 225]
QUANTITATIVE RESULT: 714
//
BINDER: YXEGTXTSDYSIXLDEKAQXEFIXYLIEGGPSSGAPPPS (Aib2; αMeF6; αMeL13; K17((2-[2-(2-Amino-ethoxy)-ethoxy]-acetyl)2-(γ-Glu)-CO-(CH2)18-CO2H); Aib20; D-Glu24; C-terminal NH2) [Example 227]
QUANTITATIVE RESULT: 113
